Cited source for all entries: the RNAGym collection of RNA variant scans (doi:10.7554/elife.80360)

Property: self-cleavage; scope: individual variants
B1: CPEB3 Ribozyme (parent)
chain: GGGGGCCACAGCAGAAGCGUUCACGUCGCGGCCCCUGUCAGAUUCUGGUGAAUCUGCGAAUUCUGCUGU

- Variants of: B1
- method: self-cleavage, relative activity (ratio to wild type); higher = more cleavage; co-transcriptional

GGGGGCCACAGCAGAAGCGUUCACGUCGCGGCCCUUGUCAGAUUCUGUUGAAUCUGCGAAUUCUGCUGU [C35U G48U]; 0.987
GGGGGCAACAGCAGAAGCGUUCACGUCGCGGCCCCUGACAGAUUCUGGUGAAUCUGCGAAUUCUGCUGU [C7A U38A]; 0.191
GGGGGCCACAGCAGAAGCGCUCACGUCGCGGCCCCUGUCAGAUUCUGGUGAAUCUGCCAAUUCUGCUGU [U20C G58C]; 0.147
GGGGGCCACAGCAGAAUCGUUCACGUCGCGGCCCCUGUCAGAUUCUGGUGAAUCUGCGAAUUGUGCUGU [G17U C63G]; 0.229
GGGGGCCCCAGCAGAAGCGUUCACGUCGCGGCCCCAGUCAGAUUCUGGUGAAUCUGCGAAUUCUGCUGU [A8C U36A]; 0.205

For the variant shown here, GGGGGCCACAGCAGAAGCGUUCACGUCGCGGCCCCUAGCAGAUUCUGGUGAAUCUGCGAAUUCUGCUGU [G37A U38G] , give the reported self-cleavage.
0.251

Dear colleague, I am looking for the recorded self-cleavage of the following variant: GGGGGCUACAGCAGAAGCGUUCACGUCGCGCCCCCUGUCAGAUUCUGGUGAAUCUGCGAAUUCUGCUGU [C7U G31C]
0.222

Look at this variant and give its reported self-cleavage. GGGGGCCACAGCAGAAGCUUUCACGUCGCGGCCCCUGUCAGAUUGUGGUGAAUCUGCGAAUUCUGCUGU [G19U C45G]
0.4

Fill in: self-cleavage of GGGGCCCACAGCAGAAGCGUUCACGUCGCGGCCCCUGUCAGAUUCUGGUGAAUCUGCGAAUUCUGCUGA [G5C U69A] is ___
0.307

Item GGGGGCCACAGCAGAACCGUUCACGUCGCGGCCCCUGUCAGAUUCUGGUGGAUCUGCGAAUUCUGCUGU [G17C A51G] has what recorded self-cleavage?
0.126

Would you kindly share the measured self-cleavage for GGGGGCCACAGCGGAAGCGUUCACGUCGCGGCCCCUGUCAGAUUCUGGUGAAUCUGCUAAUUCUGCUGU [A13G G58U] ?
1.01
